# System: A549
# measurement-description: NCI tumour cell line growth inhibition, 48 h
Activity calls are given as the source filed them. Cut-off read from the data, not from the text of the source: active = GI50 up to about 1.1 µM and inactive = higher.
Can you answer with just one of these options? yes (1) (active), no (0) (inactive)

Record excerpt, results attached:
>>> answer_label("N#CC1CC2(C(=O)C1=O)c1ccccc1-c1ccccc12 (stereo not given)")
"no (0)"
>>> answer_label("CN(C)c1ccc2c(c1)oc(=O)c1ccccc12")
"no (0)"

Given N#Cc1c(-c2ccc([N+](=O)[O-])cc2)cc(-c2ccc(Nc3ccnc4cc(Cl)ccc34)cc2)[nH]c1=O , state the outcome it received in this test. no (0)

How about this compound: O=S(=O)(OI(OI(OS(=O)(=O)C(F)(F)F)c1ccccc1)c1ccccc1)C(F)(F)F no (0)

How about this compound: O=c1[nH]nc(Cc2ccc(Cl)cc2)n1/N=C/c1ccco1 no (0)
